protocol: In vivo pharmacokinetics study after single administration in Beagle dogs
condition-set: dog, plasma, 15 mg/kg; male Beagle dogs, 15 mpk oral
Description: Experimental Example 4: In Vivo Pharmacokinetics Study after Single Administration in Beagle Dogs Male Beagle dogs were used as the test animals, and the plasma concentrations of the compounds were determined after a single administration and the pharmacokinetic behavior was evaluated. Beagle (male, 6 to 12 kg, more than 6 months old, Beijing Mars Biotechnology Co., Ltd.) […]
property-name: half-life (h)
Numbers only, in h.

For the compound COCCN1C[C@@H](n2ccc(F)c2)[C@H](NC(=O)Nc2c(C)c(-c3cnc(C4(F)COC4)nc3)nn2-c2ccccc2)C1 , give its measured half-life value.
1.2
